# Test system: Hara (NRF2 pathway wild type cell line with low AKR1C3 expression)
# Test Protocol: In vitro cell proliferation assay (CellTiter-Glo), Hara
# Format: cell-based
# Condition Summary: 72 h; Hara cells, 3 days, CellTiter-Glo, top concentration 10 μM; read-out: HARA Qualified absolute AC50
Kindly state AC50 for each of the entries shown.

(Q) // query AC50 value for entry CCN1c2ccc(F)cc2C(=O)CC12CCN(C(=O)NCc1ccc(F)c(N)c1F)CC2
(A) > 10 µM

(Q) Find the recorded AC50 belonging to O=C(NCc1ccc(F)c(CO)c1)N1CCC2(CC1)CC(O)c1cc(F)ccc1N2 (racemic) and report it.
(A) 0.067 µM

(Q) // AC50 lookup, key: Nc1ccc(CNC(=O)N2CCC3(CC2)CC(=O)c2cc(F)ccc2N3)cc1C(F)(F)F
(A) > 10 µM

(Q) So what does the record say about AC50 for CCCNC(=O)c1cc(CNC(=O)N2CCC3(CC2)CC(=O)c2cc(F)ccc2N3)ccc1F ?
(A) > 10 µM

(Q) Can you look up the measured AC50 of Nc1cc(F)c(CNC(=O)N2CCC3(CC2)CC(=O)c2cc(F)ccc2N3)cc1F for me?
(A) > 10 µM
